molecular target: Sphingosine 1-phosphate receptor 1 (Homo sapiens); experiment: In vitro binding affinity towards human Sphingosine 1-phosphate receptor 1 expressed in HEK293T cells using [gamma-35S]-GTP as radioligand. (Experiment 2); assay type: cell-based, HEK-293T
Sequence (P21453 whole entry): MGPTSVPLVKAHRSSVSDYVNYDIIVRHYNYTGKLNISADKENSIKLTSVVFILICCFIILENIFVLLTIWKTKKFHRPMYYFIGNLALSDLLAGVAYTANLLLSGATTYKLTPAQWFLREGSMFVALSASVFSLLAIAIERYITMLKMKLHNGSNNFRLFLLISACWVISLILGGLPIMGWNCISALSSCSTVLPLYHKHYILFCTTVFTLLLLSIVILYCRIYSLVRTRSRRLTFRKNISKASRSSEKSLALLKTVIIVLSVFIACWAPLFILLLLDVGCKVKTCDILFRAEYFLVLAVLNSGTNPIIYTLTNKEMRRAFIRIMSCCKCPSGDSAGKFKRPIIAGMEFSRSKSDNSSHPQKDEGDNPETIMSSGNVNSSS
reported_endpoint: EC50 (nM)
Write down the numeric answer in nM and omit the unit.

Name the recorded EC50 for `CCCCCCCCCCCCC/C=C/[C@@H](O)[C@@H](N)COP(=O)(O)O` . 4.5

###

Target: Sphingosine 1-phosphate receptor 4 (Homo sapiens, UniProt O95977)
Sequence (O95977 whole entry): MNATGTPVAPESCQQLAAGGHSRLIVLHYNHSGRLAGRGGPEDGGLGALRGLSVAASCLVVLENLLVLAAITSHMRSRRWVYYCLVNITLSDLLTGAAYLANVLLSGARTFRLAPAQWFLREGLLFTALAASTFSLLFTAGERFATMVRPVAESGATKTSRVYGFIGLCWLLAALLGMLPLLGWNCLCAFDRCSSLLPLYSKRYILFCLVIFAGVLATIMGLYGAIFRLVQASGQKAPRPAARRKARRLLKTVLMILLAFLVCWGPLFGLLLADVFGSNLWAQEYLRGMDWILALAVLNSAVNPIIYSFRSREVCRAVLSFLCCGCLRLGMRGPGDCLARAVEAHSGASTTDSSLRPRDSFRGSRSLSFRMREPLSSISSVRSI
Experiment: In vitro binding affinity towards human Sphingosine 1-phosphate receptor 4 expressed in HEK293T cells using [gamma-35S]-GTP as radioligand
Format: cell-based, HEK-293T
reported_endpoint: EC50 (nM)
Write down the numeric answer in nM and omit the unit.

Enter reported EC50 observed with Sphingosine 1-phosphate receptor 4 (Homo sapiens, UniProt O95977) for `CCCCCCCCCCc1ccc(NC(=O)[C@H](N)COP(=O)(O)O)cc1.O=C(O)C(F)(F)F` 450

Enter reported EC50 observed with Sphingosine 1-phosphate receptor 4 (Homo sapiens, UniProt O95977) for `CCCCCCCCCCCCc1ccc(NC(=O)[C@H](N)COP(=O)(O)O)cc1.O=C(O)C(F)(F)F` 1400

Enter reported EC50 observed with Sphingosine 1-phosphate receptor 4 (Homo sapiens, UniProt O95977) for `CCCCCCc1ccc(NC(=O)[C@@H](N)COP(=O)(O)O)cc1.O=C(O)C(F)(F)F` 1500

Enter reported EC50 observed with Sphingosine 1-phosphate receptor 4 (Homo sapiens, UniProt O95977) for `CCCCCCc1ccc(NC(=O)[C@H](N)COP(=O)(O)O)cc1.O=C(O)C(F)(F)F` 880

###

target: Sphingosine 1-phosphate receptor 3 (Homo sapiens); experiment: In vitro binding affinity towards human Sphingosine 1-phosphate receptor 3 expressed in HEK293T cells using [gamma-35S]-GTP as radioligand; assay type: cell-based, HEK-293T
Sequence (Q99500 whole entry): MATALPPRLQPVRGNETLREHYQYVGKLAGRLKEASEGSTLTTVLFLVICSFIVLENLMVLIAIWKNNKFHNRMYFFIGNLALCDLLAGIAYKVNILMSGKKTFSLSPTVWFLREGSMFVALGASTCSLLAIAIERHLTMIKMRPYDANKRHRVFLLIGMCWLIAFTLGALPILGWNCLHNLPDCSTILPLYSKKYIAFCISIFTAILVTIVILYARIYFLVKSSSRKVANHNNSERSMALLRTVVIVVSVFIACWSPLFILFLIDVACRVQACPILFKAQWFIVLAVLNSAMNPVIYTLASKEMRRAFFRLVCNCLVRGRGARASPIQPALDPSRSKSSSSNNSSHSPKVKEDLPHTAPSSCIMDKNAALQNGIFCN
reported_endpoint: pEC50
# pEC50 is unitless: minus log10 of the molar concentration; print number only

Enter reported pEC50 observed with Sphingosine 1-phosphate receptor 3 (Homo sapiens) for `CCCCCCCCCCCCc1ccc(NC(=O)[C@H](N)COP(=O)(O)O)cc1.O=C(O)C(F)(F)F` 6.13

Enter reported pEC50 observed with Sphingosine 1-phosphate receptor 3 (Homo sapiens) for `CCCCCCCCCCCCCCNC(=O)[C@@H](N)COP(=O)(O)O` 6.06

Enter reported pEC50 observed with Sphingosine 1-phosphate receptor 3 (Homo sapiens) for `CCCCCCCCc1ccc(NC(=O)[C@H](N)COP(=O)(O)O)cc1.O=C(O)C(F)(F)F` 6.35

Enter reported pEC50 observed with Sphingosine 1-phosphate receptor 3 (Homo sapiens) for `CCCCCCCCCCc1ccc(NC(=O)[C@H](N)COP(=O)(O)O)cc1.O=C(O)C(F)(F)F` 7.05
